assay: GDH-TPI coupling enzyme inhibitors, primary screen, artefact control for M. tuberculosis FBA inhibitor project, biochemical, absorbance, full deck (AID 588335); details: GDH-TPI coupled enzyme counterscreen, NADH absorbance; at 4.8 µM; stronger effect = higher value;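 also: 0% = DMSO wells and 100% = wells lacking the enzyme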
The whole screen tested about 360,000 compounds, of which about 4,500 (1.2%) were called active. Many of the other results were omitted from the sample, so actives are more common in it than they were.
measured.attribute: inhibition (%)
A number alone suffices; assume %.

Known results for compounds:
>>> numeric_result("COc1ccc(-c2noc(C(C)NS(=O)(=O)c3ccc(NC(C)=O)cc3)n2)cc1 (stereo not drawn)")
-8.81
>>> numeric_result("CC(C)CC1C(=O)N(Cc2cn(Cc3ccco3)nn2)CCS(=O)(=O)N1Cc1ccc(-c2ccc(Cl)c(Cl)c2)cc1 (stereo not drawn)")
-1.42

Turning to the following compound.
Exercise: Name the reported inhibition value associated with the compound CCN(CC)CCCNC(=S)N(CCO)Cc1cc2cc3c(cc2[nH]c1=O)OCO3
Key: 10.3

Reference source for all entries: PubChem BioAssay AID588335
